Provenance of the data: the supplement of paper PMC11246515

Assay: total protein half-life in vivo (active degradation + dilution); higher = more stable protein
Details: E. coli NCM3722 delta-hslV; growth: N-lim chemostat; doubling time 6 h
# maps each entry to its total protein half-life in vivo
Hi! Could you send only the number? It should be in h, unit omitted.

Recorded results for 3 sequences are shown here.
sequence.text	total protein half-life in vivo [h]
MSQPLNADQELVSDVVACQLVIKQILDVLDVIAPVEVREKMSSQLKNIDFTNHPAAADPVTMRAIQKAIALIELKFTPQGESH [P0AD10]	5.15
MTKQVKIYHNPRCSKSRETLNLLKENGVEPEVVLYLETPADAATLRDLLKILGMNSARELMRQKEDLYKELNLADSSLSEEALIQAMVDNPKLMERPIVVANGKARIGRPPEQVLEIVG	3.65
MKKLITANDIREAHARGEQAMSVVLRASIITPEAREVADLLGFTITECDESIPVTASVPASVPADKTESQRIRETIIAQLPEGQFTESLVAQLMEKVMKEKQSLEQGAMQPSFKSVTGKGGIKVIDGSSVKFGRFDGAEPHCVGLTDLVTGDDGSSMAAGFMQWENAFFPWTLNYDEIDMVLEGELHVRHEGQTMIAKAGDVMFIPKGSSIEFGTTSSVKFLYVAWPANWQSL	1.44

With those in mind, consider the next sequence.
// query Look up and report measured total protein half-life in vivo for this entry: MFKPHVTVACVVHAEGKFLVVEETINGKALWNQPAGHLEADETLVEAAARELWEETGISAQPQHFIRMHQWIAPDKTPFLRFLFAIELEQICPTQPHDSDIDCCRWVSAEEILQASNLRSPLVAESIRCYQSGQRYPLEMIGDFNWPFTKGVI [P0AEI6]
// result 4.45

====

// total protein half-life in vivo lookup, one value per entry
Assay: total protein half-life in vivo (active degradation + dilution); higher = more stable protein
Details: wild type E. coli NCM3722; growth: N-lim chemostat; doubling time 12 h
I only need the number, in h, no unit after it.

Worked examples, 2 sequences total:
sequence.text	endpoint	value.reported
MIKQRTLKRIVQATGVGLHTGKKVTLTLRPAPANTGVIYRRTDLNPPVDFPADAKSVRDTMLCTCLVNEHDVRISTVEHLNAALAGLGIDNIVIEVNAPEIPIMDGSAAPFVYLLLDAGIDELNCAKKFVRIKETVRVEDGDKWAEFKPYNGFSLDFTIDFNHPAIDSSNQRYAMNFSADAFMRQISRARTFGFMRDIEYLQSRGLCLGGSFDCAIVVDDYRVLNEDGLRFEDEFVRHKMLDAIGDLFMCGHNIIGAFTAYKSGHALNNKLLQAVLAKQEAWEYVTFQDDAELPLAFKAPSAVLA [P0A725]	total protein half-life in vivo	1.43
MSHPALTQLRALRYCKEIPALDPQLLDWLLLEDSMTKRFEQQGKTVSVTMIREGFVEQNEIPEELPLLPKESRYWLREILLCADGEPWLAGRTVVPVSTLSGPELALQKLGKTPLGRYLFTSSTLTRDFIEIGRDAGLWGRRSRLRLSGKPLLLTELFLPASPLY	total protein half-life in vivo	4.66

Turning now to a further record.
// query Read the entry MNNHFKCIGIVGHPRHPTALTTHEMLYRWLCTKGYEVIVEQQIAHELQLKNVKTGTLAEIGQLADLAVVVGGDGNMLGAARTLARYDIKVIGINRGNLGFLTDLDPDNAQQQLADVLEGHYISEKRFLLEAQVCQQDCQKRISTAINEVVLHPGKVAHMIEFEVYIDEIFAFSQRSDGLIISTPTGSTAYSLSAGGPILTPSLDAITLVPMFPHTLSARPLVINSSSTIRLRFSHRRNDLEISCDSQIALPIQEGEDVLIRRCDYHLNLIHPKDYSYFNTLSTKLGWSKKLF [P0A7B3] and write its reported total protein half-life in vivo.
// result 7.59

====

Test: total protein half-life in vivo (active degradation + dilution); higher = more stable protein
Conditions: wild type E. coli NCM3722; growth: C-lim chemostat; doubling time 3 h
Is total protein half-life in vivo at least 3 h? Then Yes. If not, No.

sequence.text	group.label
MFSIQQPLLVFSDLDGTLLDSHSYDWQPAAPWLTRLREANVPVILCSSKTSAEMLYLQKTLGLQGLPLIAENGAVIQLAEQWQEIDGFPRIISGISHGEISLVLNTLREKEHFKFTTFDDVDDATIAEWTGLSRSQAALTQLHEASVTLIWRDSDERMAQFTARLNELGLQFMQGARFWHVLDASAGKDQAANWIIATYQQLSGKRPTTLGLGDGPNDAPLLEVMDYAVIVKGLNREGVHLHDEDPARVWRTQREGPEGWREGLDHFFSAR	No
MRTVKVFEEAWPLHTPFVIARGSRSEARVVVVELEEEGIKGTGECTPYPRYGESDASVMAQIMSVVPQLEKGLTREELQKILPAGAARNALDCALWDLAARRQQQSLADLIGITLPETVITAQTVVIGTPDQMANSASTLWQAGAKLLKVKLDNHLISERMVAIRTAVPDATLIVDANESWRAEGLAARCQLLADLGVAMLEQPLPAQDDAALENFIHPLPICADESCHTRSNLKALKGRYEMVNIKLDKTGGLTEALALATEARAQGFSLMLGCMLCTSRAISAALPLVPQVSFADLDGPTWLAVDVEPALQFTTGELHL	No
MFDFASYHRAATLADAINLLADNPQAKLLAGGTDVLIQLHHHNDRYRHIVDIHNLAELRGITLAEDGSLRIGSATTFTQLIEDPITQRHLPALCAAATSIAGPQIRNVATYGGNICNGATSADSATPTLIYDAKLEIHSPRGVRFVPINGFHTGPGKVSLEHDEILVAFHFPPQPKEHAGSAHFKYAMRDAMDISTIGCAAHCRLDNGNFSELRLAFGVAAPTPIRCQHAEQTAQNAPLNLQTLEAISESVLQDVAPRSSWRASKEFRLHLIQTMTKKVISEAVAAAGGKLQ	No
MNSFNEGVVSPLLSFWRRSLMLAGALLLTACSHNSSLPPFTASGFAEDQGAVRIWRKDSGDNVHLLAVFSPWRSGDTTTREYRWQGDNLTLININVYSKPPVNIRARFDDRGDLSFMQRESDGEKQQLSNDQIDLYRYRADQIRQISDALRQGRVVLRQGRWHAMEQTVTTCEGQTIKPDLDSQAIAHIERRQSRSSVDVSVAWLEAPEGSQLLLVANSDFCRWQPNEKTF	Yes
MSDNIRVGLIGYGYASKTFHAPLIAGTPGQELAVISSSDETKVKADWPTVTVVSEPKHLFNDPNIDLIVIPTPNDTHFPLAKAALEAGKHVVVDKPFTVTLSQARELDALAKSLGRVLSVFHNRRWDSDFLTLKGLLAEGVLGEVAYFESHFDRFRPQVRDRWREQGGPGSGIWYDLAPHLLDQAITLFGLPVSMTVDLAQLRPGAQSTDYFHAILSYPQRRVILHGTMLAAAESARYIVHGSRGSYVKYGLDPQEERLKNGERLPQEDWGYDMRDGVLTRVEGEERVEETLLTVPGNYPAYYAAIRDALNGDGENPVPASQAIQVMELIELGIESAKHRATLCLA	Yes
MSDTTELVDLAVIFPDLEIELKYACADNITGKAIYQQARCLLHKDAITALAKSISIAQLSGLQLVIYDAYRPQQAQAMLWQACPDPQYVVDVTVGSNHSRGTAIDLTLRDEHGNILDMGAGFDEMHERSHAYHPSVPPAAQRNRLLLNAIMTGGGFVGISSEWWHFELPQAASYPLLADQFSCFISPGTQHVS	No

Turning to the following sequence.
// query Reported total protein half-life in vivo reaches at least 3 h for MSCEELEIVWNNIKAEARTLADCEPMLASFYHATLLKHENLGSALSYMLANKLSSPIMPAIAIREVVEEAYAADPEMIASAACDIQAVRTRDPAVDKYSTPLLYLKGFHALQAYRIGHWLWNQGRRALAIFLQNQVSVTFQVDIHPAAKIGRGIMLDHATGIVVGETAVIENDVSILQSVTLGGTGKSGGDRHPKIREGVMIGAGAKILGNIEVGRGAKIGAGSVVLQPVPPHTTAAGVPARIVGKPDSDKPSMDMDQHFNGINHTFEYGDGI [P0A9D4] ?
// result Yes

====

Assay: total protein half-life in vivo (active degradation + dilution); higher = more stable protein
Conditions: wild type E. coli NCM3722; growth: C-lim chemostat; doubling time 3 h
endpoint: total protein half-life in vivo (min)
Write down the numeric answer in min and omit the unit.

// query Respond only with total protein half-life in vivo recorded for MAEAQNDPLLPGYSFNAHLVAGLTPIEANGYLDFFIDRPLGMKGYILNLTIRGQGVVKNQGREFVCRPGDILLFPPGEIHHYGRHPEAREWYHQWVYFRPRAYWHEWLNWPSIFANTGFFRPDEAHQPHFSDLFGQIINAGQGEGRYSELLAINLLEQLLLRRMEAINESLHPPMDNRVREACQYISDHLADSNFDIASVAQHVCLSPSRLSHLFRQQLGISVLSWREDQRISQAKLLLSTTRMPIATVGRNVGFDDQLYFSRVFKKCTGASPSEFRAGCEEKVNDVAVKLS [P0A9E0]
// result 44.8
